- Assay target: T1, monovalent, heterodimeric human ICOS-Fc (human)
- T1 construct: Make-up of the heterodimer is not described; also called Monomeric hICOS; monomeric form of human ICOS; not shown: The human IgG1 Fc fused to ICOS, and the partner Fc chain of the heterodimer
- T1 chain: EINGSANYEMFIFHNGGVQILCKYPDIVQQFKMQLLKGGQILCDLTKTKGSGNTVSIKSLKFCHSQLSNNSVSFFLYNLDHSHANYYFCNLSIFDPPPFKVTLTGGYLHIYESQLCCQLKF
- Method notes: BLI (Octet RED96), IgG vs monovalent heterodimeric ICOS-Fc
Value type: kon (M⁻¹ s⁻¹)
Please respond with the number in M⁻¹ s⁻¹ and leave the unit unwritten.

INPUT: Quick one: kon of 37A10 (antibody, V domains shown, Armenian hamster monoclonal tested as IgG; also called hamster anti-ICOS 37A10) VH: EVQLVESGGGLVKPGGSLKLSCAASGFTFSDYWMDWVRQAPGKGLEWVGNIDEDGSITEYSPFVKGRFTISRDNVKNTLYLQMNSVKSEDTATYYCTRWGRFGFDSWGQGTLVTVSS VL: DIVMTQSPSSLAVSAGDRVTINCKSSQSLLSGSFNYLTWYQQKTGQAPKLLIFYASTRHTGVPDRFMGSGSGTDFTLTINSFQTEDLGDYYCHHHYNAPPTFGPGTKLELR ?
OUTPUT: 151000

INPUT: Quick one: kon of 16G10 (antibody, V domains shown, Armenian hamster monoclonal tested as IgG; also called hamster anti-ICOS 16G10) VH: EVQLVESGGGLVKPGGSLKLSCAASGFTFSDYWMDWVRQAPGKGLEWVGNIDHDGNIINFAPSVKGRFTISRDNAKNTLYLQMNSVKSEDTATYYCARWGHYAFDSWGQGTLVTVSS VL: DIVMTQSPSSLAVSAGDKVTINCKSSQSLLSSGYNYLIWYQQKTGQAPKLLIFYASTRHTGVPDRFIGSGSGTDFTLTITSFQTEDLGDYYCQHHYSSPPTFGPGTKLEIK ?
OUTPUT: 163000

INPUT: Quick one: kon of 7F12 (antibody, V domains shown, Armenian hamster monoclonal tested as IgG; also called hamster anti-ICOS 7F12) VH: EVQLVESGGGLVKPGGSLTLSCAASGFTFSDYWMDWVRQGPGKGLEWVGNIDEDGSTTYYAPFVKGRFTISRDNAKKTLYLQMNSVKSEDTATYYCTRWGRYAFDSWGQGTLVTVSS VL: DIVMTQSPSSLAVSPGDKVTINCKSSQSLLSGNYNYLAWYQQKTGQAPKLLIFYASTRHTGVPDRFMGSGSGTDFSLTINSFQTEDLGDYYCQHHYSTPPTFGPGTKLEIK ?
OUTPUT: 133000

INPUT: Quick one: kon of 35A9 (antibody, V domains shown, Armenian hamster monoclonal tested as IgG; also called hamster anti-ICOS 35A9) VH: EVQLVESGGGLVKPGGSLKLSCAASGFTFSDYWMDWVRQAPGKGLEWVGNIDEDGSIAEYSPFVKGRFTISRDNVKNTLYLQMNSVKSEDTATYYCSRWGRFAFDSWGQGTLVTVSS VL: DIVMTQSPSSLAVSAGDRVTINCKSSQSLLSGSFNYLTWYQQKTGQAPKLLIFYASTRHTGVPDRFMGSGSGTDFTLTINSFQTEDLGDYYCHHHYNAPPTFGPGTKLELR ?
OUTPUT: 178000
